Below: a set of entries, each annotated with reported half-life.
Experiment: Rodent pharmacokinetic study
Format: in vivo, Male Wistar rats
Conditions: male, Wistar, plasma; rat, intravenous (bolus), 1 mg/kg
reportedMetric: half-life (h)

[
  {
    "compound": "CN1CCc2c(Cc3ccnc(F)c3)cc(C(=O)N[C@H]3CCCC[C@@H]3O)nc21 [Example 73]",
    "endpointValue": 1.1
  },
  {
    "compound": "Cl.O=C(N[C@H]1CCCC[C@@H]1O)c1cc(Cc2ccc(F)cc2)c2c(n1)CNCC2 [Example 87]",
    "endpointValue": 1.5
  },
  {
    "compound": "O=C(N[C@H]1CCCC[C@@H]1O)c1cc(Cc2ccc(F)cc2)c2c(n1)OCCO2 [Example 103]",
    "endpointValue": 0.7
  },
  {
    "compound": "Cn1ccc2c(Cc3ccc(Cl)nc3)cc(C(=O)N[C@H]3CCCC[C@@H]3O)nc21 [Example 18]",
    "endpointValue": 1.3
  }
]
